Target: Nuclear receptor subfamily 1 group D member 1 (Homo sapiens) (UniProt P20393)
Sequence (P20393 whole entry, looked up): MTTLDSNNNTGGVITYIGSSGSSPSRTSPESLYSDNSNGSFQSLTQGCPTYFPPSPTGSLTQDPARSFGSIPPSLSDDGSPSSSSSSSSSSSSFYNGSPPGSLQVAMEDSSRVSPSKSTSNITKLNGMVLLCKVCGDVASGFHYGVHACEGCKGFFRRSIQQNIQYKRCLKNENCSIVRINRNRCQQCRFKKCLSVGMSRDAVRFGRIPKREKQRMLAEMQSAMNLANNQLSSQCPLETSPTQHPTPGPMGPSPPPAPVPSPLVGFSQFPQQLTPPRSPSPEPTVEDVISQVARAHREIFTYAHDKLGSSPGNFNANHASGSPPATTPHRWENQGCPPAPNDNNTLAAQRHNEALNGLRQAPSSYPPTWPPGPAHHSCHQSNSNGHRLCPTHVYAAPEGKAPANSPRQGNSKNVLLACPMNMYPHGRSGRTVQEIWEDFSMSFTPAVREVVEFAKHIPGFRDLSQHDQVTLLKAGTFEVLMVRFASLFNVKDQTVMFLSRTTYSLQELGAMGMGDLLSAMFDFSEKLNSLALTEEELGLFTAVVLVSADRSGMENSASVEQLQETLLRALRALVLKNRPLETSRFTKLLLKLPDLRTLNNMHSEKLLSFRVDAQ
Procedure details: modulators of Rev-erb alpha DNA binding, dose response, biochemical, FITC-DNA, fluorescence polarization (AID 1259321)
Activity calls are given as the source filed them.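 The calls were made as follows: active = half-maximal concentration for changing protein binding to DNA, from the fitted dose curve, below 10 micromolar; inactive = the rest.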
Permitted responses: label 1 for active, label 0 for inactive

Asked: In this assay, the call recorded for C=CCNC(=O)c1ccc(Cn2c(=S)[nH]c3cc4c(cc3c2=O)OCO4)cc1 was what?
Given back: label 0

Asked: What classification did Cc1cc(C)c2nc(SCC(=O)N(C)C3CCS(=O)(=O)C3)cc(C)c2c1 (stereo unspecified) end up with in this test?
Given back: label 1

Asked: Dear all, I need the recorded test outcome for COC(=O)c1cc2cc(Cl)ccc2nc1SC , thank you.
Given back: label 1

Asked: Called result for COCCN1C(=O)/C(=C/c2ccc(N3CCCC3)cc2C)SC1=S
Given back: label 1

====

Target: Nuclear receptor subfamily 1 group D member 1 (Homo sapiens) (UniProt P20393)
Procedure details: modulators of Rev-erb alpha DNA binding, dose response, biochemical, FITC-DNA, fluorescence polarization (AID 1259321)
Active and inactive are the calls of the source.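 Rule for the calls: active = half-maximal concentration for changing protein binding to DNA, from the fitted dose curve, below 10 micromolar; inactive = the rest.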
Return exactly one item of Yes (active), No (inactive)

Please review the entries below; each comes with its answer.
>  <Smiles notation>
COc1ccc2cc(C(=O)Nc3ccc(S(N)(=O)=O)cc3)sc(=O)c2c1OC

>  <Assigned category>
Yes

$$$$
>  <Smiles notation>
Cn1c(=O)c(NCCc2ccccc2)c2c3c(cccc31)C(=O)c1ccccc1-2

>  <Assigned category>
No

$$$$
>  <Smiles notation>
CCOC(=O)c1cccc2c(=O)c(C(=O)c3ccc(Cl)cc3)c(C(=O)OC)[nH]c12

>  <Assigned category>
No

$$$$

Turning now to a further record.
Asked: What was the test verdict on O=C1NC(=O)c2c(Br)c(Br)c(Br)c(Br)c21 ?
Given back: Yes

====

Target: Nuclear receptor subfamily 1 group D member 1 (Homo sapiens)
Procedure details: modulators of Rev-erb alpha DNA binding, dose response, biochemical, FITC-DNA, fluorescence polarization (AID 1259321)
Activity calls are given as the source filed them.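 How the source made its calls: active means half-maximal concentration for changing protein binding to DNA, from the fitted dose curve, below 10 micromolar; inactive means the rest.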
Result type: IC50

For orientation, consider the following solved cases.
>  <Compound>
Cc1ccc(C(=O)CSc2nc3ccccc3c(=O)n2-c2ccccc2)s1

>  <Result type>
IC50

>  <Measured result>
7.75 µM

$$$$
>  <Compound>
Cc1ccc(-c2nnc(NCc3nc4ccccc4[nH]3)c3ccccc23)cc1S(=O)(=O)N(C)C

>  <Result type>
IC50

>  <Measured result>
inactive

$$$$
>  <Compound>
Cc1nn(-c2ccc(Cl)c(Cl)c2)c(=O)c2ccccc12

>  <Result type>
IC50

>  <Measured result>
5.16 µM

$$$$
>  <Compound>
O=C1c2cccc3c(O)ccc(c23)C(=O)N1Cc1ccco1

>  <Result type>
IC50

>  <Measured result>
inactive

$$$$
>  <Compound>
COc1ccc(NC(=O)COC(=O)c2ccc3c(c2)OCO3)c(OC)c1

>  <Result type>
IC50

>  <Measured result>
> 40 µM (inactive)

$$$$

Form field IC50, entry Cc1ccc(NC(=O)c2sc(Cl)nc2-c2ccccc2)cc1C : inactive

// IC50 lookup, compound = COc1nc(-c2ccc(Cl)cc2)ccc1-c1noc(-c2cccs2)n1 , result: inactive

Short answer for O=C(CSc1nnc2scc(-c3ccccc3)n12)Nc1nsc(-c2ccccc2)n1 : IC50 was > 40 µM (inactive)

The recorded IC50 for entry N#CC(C#N)=C1C=C2C=C(N3CCOCC3)CCC2CC1 (stereo not given) equals 4.31 µM

Lab note: measured IC50 of O=C(Cc1ccc(Cl)cc1)c1c[nH]c(C(=O)NCc2cccnc2)c1 was 2.51 µM

Lab book: IC50 of OCC[n+]1ccc(/C=C/c2c[nH]c3ccccc23)cc1 noted as > 40 µM (inactive)

IC50 reported for this compound CC(=O)c1cccc(NC(=O)c2cccc(NC(=O)c3ccco3)c2)c1 : 1.57 µM

The reported numbers originate from PubChem BioAssay AID1259321.
